Reference for the values: patent US20190247371A1

Can you tell me pIC50 for the items I'm about to list?
tested on: H526 cells; experiment: alamarBlue cytotoxicity assay, SCLC H526 cells; assay type: cell-based; details: Homo sapiens, NCI-H526, 72 h, read-out: IC50, concentration required to inhibit cell growth by 50%
Give bare numbers, as −log10 of the molar value.

Compound	pIC50
CCc1c2c(nc3ccc(OC(=O)N4CCC(N5CCCCC5)CC4)cc13)-c1cc3c(c(=O)n1C2)COC(=O)[C@]3(O)CC	5.93

Just so you know, measured pIC50 for COc1cc([C@@H]2c3cc4c(cc3[C@@H](O[C@@H]3O[C@@H]5CO[C@@H](C)O[C@H]5[C@H](O)[C@H]3O)[C@H]3COC(=O)[C@H]23)OCO4)cc(OC)c1O [Etoposide] came out at 7.30

---

test system: H82 cells; test: alamarBlue cytotoxicity assay, SCLC H82 cells; format: cell-based; conditions: H82; 72 h; mean ± S.D. of 3 independent experiments; read-out: IC50, concentration required to inhibit cell growth by 50%
Measurement type: pIC50
Answers are plain numbers, as −log10 of the molar value.

Log: H82 cells, compound N.N.[Cl][Pt][Cl] [Cisplatin, cis-diaminedichloroplatinum] , pIC50 = 6.47
